Target: NAD-dependent protein deacetylase sirtuin-2 (Homo sapiens)
Sequence (Q8IXJ6 whole entry): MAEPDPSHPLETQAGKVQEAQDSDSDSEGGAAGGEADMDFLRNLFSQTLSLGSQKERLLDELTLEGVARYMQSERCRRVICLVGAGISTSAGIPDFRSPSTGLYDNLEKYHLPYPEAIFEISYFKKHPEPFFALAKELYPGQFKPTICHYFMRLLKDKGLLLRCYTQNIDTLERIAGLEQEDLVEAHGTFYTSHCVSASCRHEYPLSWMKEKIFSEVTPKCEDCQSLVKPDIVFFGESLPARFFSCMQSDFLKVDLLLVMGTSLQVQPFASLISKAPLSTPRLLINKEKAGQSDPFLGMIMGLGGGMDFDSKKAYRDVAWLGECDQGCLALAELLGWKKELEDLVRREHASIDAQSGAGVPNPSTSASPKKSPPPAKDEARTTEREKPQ
Test: Inhibition of human recombinant N-terminally 6X-His-tagged SIRT2 after 4 hrs in presence of NAD+ by fluorescent deacetylase assay
pIC50: −log10 of the molar value.
Endpoint: pIC50

O=C1Nc2c(ccc(Cl)c2Cl)/C1=C/c1ccc([N+](=O)[O-])cc1
4.98
O=C1Nc2c(ccc(Cl)c2Cl)/C1=C/c1cc(Br)c(O)c(Br)c1
4.55
CCN(CC)CCNC(=O)c1c(C)[nH]c(/C=C2\C(=O)Nc3ccc(F)cc32)c1C
3.91
